system: MKN1 cells; assay: MKN1 CTG proliferation assay (120 h) (gastric cancer, wt amplified); type: cell-based; conditions: Homo sapiens, MKN-1
Experimental readout: IC50 (nM)

Molecule | Result units | IC50
C[C@H](Oc1nc(-c2onc3c2CCC[C@@]32CCCc3sc(N)c(C#N)c32)nc2c1n(C)c(=O)n2[C@@H]1CC2CCC1O2)[C@@H]1CCCN1C (stereo partly drawn) [I-18] | nM | 457

a: CCn1c(=O)n([C@@H]2CCCOC2)c2nc(-c3onc4c3CCC[C@@]43CCCc4sc(N)c(C#N)c43)nc(O[C@@H](C)[C@@H]3CCCN3C)c21 [I-30]
b: C[C@H](Oc1nc(-c2onc3c2CCC[C@@]32CCCc3sc(N)c(C#N)c32)nc2c1n(C)c(=O)n2[C@@H]1CCOC1)[C@@H]1C[C@@H]2C[C@@H]2N1C [I-28]
c: C[C@H](Oc1nc(-c2onc3c2CCC[C@@]32CCCc3sc(N)c(C#N)c32)nc2c1n(C)c(=O)n2[C@@]12COC[C@@H]1C2)[C@@H]1CC[C@H](C)N1C [I-45]
d: CCn1c(=O)n([C@@H]2CCCOC2)c2nc(-c3onc4c3CCC[C@@]43CCCc4sc(N)c(C#N)c43)nc(OCC3(CN4CCCC4)CC3)c21 [I-35]
e: C[C@H](Oc1nc(-c2onc3c2CCC[C@@]32CCCc3sc(N)c(C#N)c32)nc2c1COC[C@]21CCOC1)[C@@H]1CCCN1C [I-54]
Query: Order by IC50, ascending. Please respond with the labels ordered as the question requires.
Result: e, c, a, b, d

====

molecular target: KRAS (G12D)::CRAF protein::protein interaction (Homo sapiens (Human), UniProt P01116, G12D); assay: KRAS TR-FRET assay (KRAS G12D::CRAF, GTP)
Sequence (P01116 other isoform, or with tags, fused parts or gaps G12D): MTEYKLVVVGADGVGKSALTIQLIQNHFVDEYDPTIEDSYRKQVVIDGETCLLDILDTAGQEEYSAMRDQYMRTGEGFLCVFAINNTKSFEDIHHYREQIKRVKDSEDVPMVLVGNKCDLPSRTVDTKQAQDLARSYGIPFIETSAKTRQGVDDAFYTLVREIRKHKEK
Experimental readout: IC50 (µM)

Example entries and their recorded answers appear below.
Compound | Result units | IC50
C[C@H](Oc1nc(-c2onc3c2CCC[C@@]32CCCc3sc(N)c(C#N)c32)nc2c1[nH]c(=O)n2[C@@H]1CCOC1)[C@@H]1CCCN1C [I-8] | µM | 0.047
Cc1cn([C@@H]2CCOC2)c2nc(-c3onc4c3CCC[C@@]43CCCc4sc(N)c(C#N)c43)nc(O[C@@H](C)[C@@H]3CCCN3C)c12 [I-41] | µM | 0.362

I: COCCn1c(=O)n(C)c2c(O[C@@H](C)[C@@H]3CCCN3C)nc(-c3onc4c3CCC[C@@]43CCCc4sc(N)c(C#N)c43)nc21 [I-7]
II: C[C@H](Oc1nc(-c2onc3c2CCC[C@@]32CCCc3sc(N)c(C#N)c32)nc2c1n(C)c(=O)n2[C@@H]1CCOC1)[C@@H]1C[C@@H](F)CN1C [I-22]
Query: Just tell me: smaller IC50 value, I or II ? Kindly state the label of the option you pick.
Result: II

1: C[C@H](Oc1nc(-c2noc3c2CCC[C@@]32CCCc3sc(N)c(C#N)c32)nc2c1COC[C@]21CCOC1)[C@@H]1CCCN1C [II-8]
2: CC(C)n1c(=O)n([C@@H]2CCOC2)c2nc(-c3onc4c3CCC[C@@]43CCCc4sc(N)c(C#N)c43)nc(O[C@@H](C)[C@@H]3CCCN3C)c21 [I-32]
Query: Pick one: 1 or 2 . Which one has the lower reported IC50? Write the label of whichever entry you select.
Result: 1
(1: 0.017 µM, 2: 0.478 µM)

====

test system: SK-CO-1 cells; experiment: SK-CO-1 CTG proliferation assay (120 h) (CRC, G12V); type: cell-based; conditions: Homo sapiens
pIC50: −log10 of the molar value.
Experimental readout: pIC50

Smiles data | pIC50
CCn1c(=O)n([C@@H]2CCOC2)c2nc(-c3onc4c3CCC[C@@]43CCCc4sc(N)c(C#N)c43)nc(O[C@@H](C)[C@@H]3CCCN3C)c21 | 8.30

a: C[C@H](Oc1nc(-c2onc3c2CCC[C@@]32CCCc3sc(N)c(C#N)c32)nc2c1CN(C1COC1)C[C@]21CCOC1)[C@@H]1CC[C@H](C)N1C
b: C[C@H](Oc1nc(-c2noc3c2CCC[C@@]32CCCc3sc(N)c(C#N)c32)nc2c1CN(c1ncccn1)[C@@]21CCOC1)[C@@H]1CCCN1C
Query: I'm curious whether a or b has the smaller pIC50 number. Which is it? Answer by quoting the chosen item's label.
Result: b
(b: 6.81, a: 8.22)

====

target: KRAS (G12V)::CRAF protein::protein interaction (Homo sapiens (Human), UniProt P01116, C118S/G12V); assay: KRAS TR-FRET assay (KRAS G12V::CRAF, GTP)
Sequence (P01116 other isoform, or with tags, fused parts or gaps G12V/C118S): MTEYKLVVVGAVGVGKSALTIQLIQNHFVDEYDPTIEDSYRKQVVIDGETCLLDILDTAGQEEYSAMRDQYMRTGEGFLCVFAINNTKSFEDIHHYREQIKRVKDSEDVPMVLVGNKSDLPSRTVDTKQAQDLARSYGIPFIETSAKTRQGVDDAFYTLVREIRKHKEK
pIC50: −log10 of the molar value.
Experimental readout: pIC50

Sample answers from the record:
Smiles data | pIC50
C[C@H](Oc1nc(-c2noc3c2CCC[C@@]32CCCc3sc(N)c(C#N)c32)nc2c1n(C)c(=O)n2[C@@H]1CCOC1)[C@@H]1CCCN1C | 7.62
C[C@H](Oc1nc(-c2noc3c2CCC[C@@]32CCCc3sc(N)c(C#N)c32)nc2c1COC[C@@]21CCOC1)[C@@H]1CCCN1C | 6.85
C[C@H](Oc1nc(-c2onc3c2CCC[C@@]32CCCc3sc(N)c(C#N)c32)nc2c1n(C)c(=O)n2[C@@H]1CCOC1)[C@@H]1CC[C@H](C)N1C | 7.66
CO[C@H]1CCN(C)[C@@H]1[C@H](C)Oc1nc(-c2noc3c2CCC[C@@]32CCCc3sc(N)c(C#N)c32)nc2c1n(C)c(=O)n2[C@@H]1CCOC1 | 7.21

I: Cc1nc2c(O[C@@H](C)[C@@H]3CCCN3C)nc(-c3onc4c3CCC[C@@]43CCCc4sc(N)c(C#N)c43)nc2n1[C@@H]1CCOC1
II: CO[C@H]1CCN(C)[C@@H]1[C@H](C)Oc1nc(-c2onc3c2CCC[C@@]32CCCc3sc(N)c(C#N)c32)nc2c1n(C)c(=O)n2[C@@H]1CCOC1
Query: Lab notebook, comparison: I versus II , higher pIC50 goes to which? Returns: label corresponding to the selected item.
Result: II
(II: 7.60, I: 7.21)

====

biological target: KRAS (WT)::CRAF protein::protein interaction (Homo sapiens (Human)); assay: KRAS TR-FRET assay (KRAS WT::CRAF, GTP)
Sequence (P01116 other isoform, or with tags, fused parts or gaps): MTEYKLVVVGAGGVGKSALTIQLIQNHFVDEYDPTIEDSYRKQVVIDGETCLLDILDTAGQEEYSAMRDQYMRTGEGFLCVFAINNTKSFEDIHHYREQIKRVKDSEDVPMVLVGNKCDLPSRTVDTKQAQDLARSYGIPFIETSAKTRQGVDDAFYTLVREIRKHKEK
pIC50: −log10 of the molar value.
Experimental readout: pIC50

Worked examples follow.
Smiles data | pIC50
C[C@H](Oc1nc(-c2noc3c2CCC[C@@]32CCCc3sc(N)c(C#N)c32)nc2c1CCO[C@]21CCOC1)[C@@H]1CCCN1C | 7.10
C[C@H](Oc1nc(-c2onc3c2CCC[C@@]32CCCc3sc(N)c(C#N)c32)nc2c1n(C)c(=O)n2C12COC(C1)C2)[C@@H]1CCCN1C | 6.75
Cc1nn([C@@H]2CCOC2)c2nc(-c3onc4c3CCC[C@@]43CCCc4sc(N)c(C#N)c43)nc(O[C@@H](C)[C@@H]3CCCN3C)c12 | 6.56
C[C@H](Oc1nc(-c2onc3c2CCC[C@@]32CCCc3sc(N)c(C#N)c32)nc2c1n(C)c(=O)n2C1COC1)[C@@H]1CCCN1C | 6.13
Cc1nc2c(O[C@@H](C)[C@@H]3CCCN3C)nc(-c3onc4c3CCC[C@@]43CCCc4sc(N)c(C#N)c43)nc2n1[C@@H]1CCOC1 | 7.28
CO[C@H]1CCN(C)[C@@H]1[C@H](C)Oc1nc(-c2onc3c2CCC[C@@]32CCCc3sc(N)c(C#N)c32)nc2c1n(C)c(=O)n2[C@@H]1CCOC1 | 7.23
C[C@H](Oc1nc(-c2noc3c2CCC[C@@]32CCCc3sc(N)c(C#N)c32)nc2c1CCCO[C@]21CCOC1)[C@@H]1CCCN1C | 7.25
C[C@H](Oc1nc(-c2onc3c2CCC[C@@]32CCCc3sc(N)c(C#N)c32)nc2c1[nH]c(=O)n2[C@@H]1CCOC1)[C@@H]1CCCN1C | 7.35

a: C[C@H](Oc1nc(-c2noc3c2CCC[C@@]32CCCc3sc(N)c(C#N)c32)nc2c1cnn2[C@@H]1CCOC1)[C@@H]1CCCN1C
b: C[C@H](Oc1nc(-c2onc3c2CCC[C@@]32CCCc3sc(N)c(C#N)c32)nc2c1ncn2[C@@H]1CCOC1)[C@@H]1CCCN1C
c: C[C@H](Oc1nc(-c2onc3c2CCC[C@@]32CCCc3sc(N)c(C#N)c32)nc2c1n(C)c(=O)n2[C@H]1CCOC1)[C@@H]1CCCN1C
Query: Please list the entries, largest pIC50 first. Labels, requested order.
Result: a, b, c
